Values from patent EP4692061A1

Measured Cell viability (% of control), listed per entry.
- System: MDA-MB-231
- PROCEDURE_DETAILS: Tumor cell viability, CCK-8 assay, MDA-MB-231
- Type: cell-based
- DETAILS: MDA-MB-231 (human breast cancer); compound treatment 1uM; 2 days

Consider the reported Cell viability (% of control) for these compounds:
>>> result("CCCc1ccc(C(=O)Nc2cccc(S(=O)(=O)Nc3cccc(C4CCC(=O)NC4=O)c3)c2)cc1 (centres unmarked) [AEV41011]")
"96.7 % of control"
>>> result("CCCCCc1ccc(C(=O)Nc2cccc(S(=O)(=O)Nc3cccc(C4CCC(=O)NC4=O)c3)c2)cc1 (centres unmarked) [AEV41013]")
"38.5 % of control"
>>> result("O=C1CCC(c2cccc(NS(=O)(=O)c3cccc(NC(=O)c4ccc(CCCCl)cc4)c3)c2)C(=O)N1 (centres unmarked) [AEV41004]")
"83.5 % of control"
>>> result("O=C1CCC(c2cccc(NS(=O)(=O)c3cccc(NC(=O)c4ccc(CCCl)cc4)c3)c2)C(=O)N1 (centres unmarked) [AEV41003]")
"97.0 % of control"

**Q:** Suppose we examine the compound CCc1ccc(C(=O)Nc2cccc(S(=O)(=O)Nc3cccc(C4CCC(=O)NC4=O)c3)c2)cc1 (centres unmarked) [AEV41010] ; what Cell viability (% of control) value has been reported?
**A:** 95.7 % of control

###

- Tested on: A549
- PROCEDURE_DETAILS: Tumor cell viability, CCK-8 assay, A549
- Assay type: cell-based
- DETAILS: A549 (human lung cancer); compound treatment 1uM; 2 days
- Description: To examine whether the compounds having CRBN-binding activity according to the present invention exert tumor cell apoptosis effects, the assay was conducted using various human cancer cell lines, including human multiple myeloma cell lines (MM.1S and MM.1R-LR), a human breast cancer cell line (MDA-MB-231), a human lung cancer cell line (A549), a human rhabdomyosarcoma cell line (RD), and a human lymphoma cell line (Jeko-1). […]
MEASUREMENT_LABEL: Cell viability (% of control)

**Q:** Suppose we examine the molecule O=C1CCC(c2cccc(NS(=O)(=O)c3cccc(NC(=O)c4ccc(CCCCCl)cc4)c3)c2)C(=O)N1 (stereo not drawn) ; what Cell viability (% of control) value has been reported?
**A:** 36.8 % of control

**Q:** Now give it for CCCCCc1ccc(C(=O)Nc2cccc(S(=O)(=O)Nc3cccc(C4CCC(=O)NC4=O)c3)c2)cc1 (stereo not drawn) too.
**A:** 25.8 % of control

**Q:** Now give it for CCCCc1ccc(C(=O)Nc2cccc(S(=O)(=O)Nc3cccc(C4CCC(=O)NC4=O)c3)c2)cc1 (stereo not drawn) too.
**A:** 94.0 % of control

**Q:** Now give it for CCCCCCCc1ccc(C(=O)Nc2cccc(S(=O)(=O)Nc3cccc(C4CCC(=O)NC4=O)c3)c2)cc1 (stereo not drawn) too.
**A:** 33.6 % of control

**Q:** Now give it for CCCCCCCCc1ccc(C(=O)Nc2cccc(S(=O)(=O)Nc3cccc(C4CCC(=O)NC4=O)c3)c2)cc1 (stereo not drawn) too.
**A:** 61.8 % of control

**Q:** Now give it for O=C1CCC(c2cccc(NS(=O)(=O)c3cccc(NC(=O)c4ccc(CCCCl)cc4)c3)c2)C(=O)N1 (stereo not drawn) too.
**A:** 101.9 % of control

**Q:** Now give it for CCCCCCc1ccc(C(=O)Nc2cccc(S(=O)(=O)Nc3cccc(C4CCC(=O)NC4=O)c3)c2)cc1 (stereo not drawn) too.
**A:** 29.5 % of control

**Q:** Now give it for O=C1CCC(c2cccc(NS(=O)(=O)c3cccc(NC(=O)c4ccc(CCCCCCCl)cc4)c3)c2)C(=O)N1 (stereo not drawn) too.
**A:** 47.0 % of control

**Q:** Now give it for O=C1CCC(c2cccc(NS(=O)(=O)c3cccc(NC(=O)c4ccc(CCCl)cc4)c3)c2)C(=O)N1 (stereo not drawn) too.
**A:** 104.0 % of control

**Q:** Now give it for O=C1CCC(c2cccc(NS(=O)(=O)c3cccc(NC(=O)c4ccc(CCCCCCl)cc4)c3)c2)C(=O)N1 (stereo not drawn) too.
**A:** 32.2 % of control

**Q:** Now give it for CCc1ccc(C(=O)Nc2cccc(S(=O)(=O)Nc3cccc(C4CCC(=O)NC4=O)c3)c2)cc1 (stereo not drawn) too.
**A:** 96.7 % of control

**Q:** Now give it for CCCc1ccc(C(=O)Nc2cccc(S(=O)(=O)Nc3cccc(C4CCC(=O)NC4=O)c3)c2)cc1 (stereo not drawn) too.
**A:** 98.9 % of control

###

- System: MDA-MB-231
- PROCEDURE_DETAILS: Tumor cell viability, CCK-8 assay, MDA-MB-231
- Format: cell-based
- DETAILS: MDA-MB-231 (human breast cancer); compound treatment 1uM; 2 days
MEASUREMENT_LABEL: Cell viability (% of control)

Consider the reported Cell viability (% of control) for these compounds:
>>> result("CCCCCCCCc1ccc(C(=O)Nc2cccc(S(=O)(=O)Nc3cccc(C4CCC(=O)NC4=O)c3)c2)cc1 (stereo not shown)")
"46.3 % of control"
>>> result("CCCCCCCc1ccc(C(=O)Nc2cccc(S(=O)(=O)Nc3cccc(C4CCC(=O)NC4=O)c3)c2)cc1 (stereo not shown)")
"40.4 % of control"
>>> result("O=C1CCC(c2cccc(NS(=O)(=O)c3cccc(NC(=O)c4ccc(CCCCCCCl)cc4)c3)c2)C(=O)N1 (stereo not shown)")
"45.6 % of control"

Read the next record carefully.
**Q:** Suppose we examine the compound CCCCCCc1ccc(C(=O)Nc2cccc(S(=O)(=O)Nc3cccc(C4CCC(=O)NC4=O)c3)c2)cc1 (stereo not shown) ; what Cell viability (% of control) value has been reported?
**A:** 35.5 % of control

###

- Tested on: Jeko-1
- PROCEDURE_DETAILS: Tumor cell viability, CCK-8 assay, Jeko-1
- Assay type: cell-based
- DETAILS: Jeko-1 (human lymphoma); compound treatment 1uM; 3 days
Measured Cell viability (% of control), listed per entry.

Consider the reported Cell viability (% of control) for these compounds:
>>> result("CCCCc1ccc(C(=O)Nc2cccc(S(=O)(=O)Nc3cccc(C4CCC(=O)NC4=O)c3)c2)cc1 (stereo not shown)")
"37.7 % of control"
>>> result("CCCCCc1ccc(C(=O)Nc2cccc(S(=O)(=O)Nc3cccc(C4CCC(=O)NC4=O)c3)c2)cc1 (stereo not shown)")
"11.8 % of control"

**Q:** // fetch Jeko-1 Cell viability (% of control) for CCCCCCCCc1ccc(C(=O)Nc2cccc(S(=O)(=O)Nc3cccc(C4CCC(=O)NC4=O)c3)c2)cc1 (stereo not shown)
**A:** 5.8 % of control

**Q:** Now give it for CCCCCCc1ccc(C(=O)Nc2cccc(S(=O)(=O)Nc3cccc(C4CCC(=O)NC4=O)c3)c2)cc1 (stereo not shown) too.
**A:** 9.7 % of control

###

- TARGET_OF_ASSAY: cereblon (CRBN) (Homo sapiens)
- PROCEDURE_DETAILS: In vitro CRBN binding assay (AlphaScreen, competitive inhibition of the PROTAC assay)
- DETAILS: Table 1; AlphaScreen, PROTAC Optimization Kit for BET Bromodomain-Cereblon Binding; read-out: Alpha IC50
MEASUREMENT_LABEL: IC50 (nM)
Numbers only; they are read as nM.

Consider the reported IC50 for these compounds:
>>> numeric_result("O=C1CCC(c2cccc(NS(=O)(=O)c3ccccc3[N+](=O)[O-])c2)C(=O)N1 (centres unmarked)")
590
>>> numeric_result("O=C1CCC(c2cccc(Nc3cccc(NC(=O)c4ccc(Cl)cc4Cl)c3)c2)C(=O)N1 (centres unmarked)")
2110
>>> numeric_result("O=C1CCC(c2cccc(NCc3cc(F)c(F)c(F)c3)c2)C(=O)N1 (centres unmarked)")
1960
>>> numeric_result("Cc1ccc(C(=O)Nc2cccc(C3CCC(=O)NC3=O)c2)c(C)c1 (centres unmarked)")
930

Read the next record carefully.
**Q:** Suppose we examine the compound O=C1CCC(c2cccc(NS(=O)(=O)c3cccc(NC(=O)c4ccc(CCCCCl)cc4)c3)c2)C(=O)N1 (centres unmarked) ; what IC50 value has been reported?
**A:** 1200

###

- Test system: Jeko-1
- PROCEDURE_DETAILS: Tumor cell viability, CCK-8 assay, Jeko-1
- Assay type: cell-based
- DETAILS: Jeko-1 (human lymphoma); compound treatment 1uM; 3 days
MEASUREMENT_LABEL: Cell viability (% of control)

Consider the reported Cell viability (% of control) for these compounds:
>>> result("O=C1CCC(c2cccc(NS(=O)(=O)c3cccc(NC(=O)c4ccc(CCCCCCCl)cc4)c3)c2)C(=O)N1 (stereo not shown)")
"13.0 % of control"
>>> result("CCCCCCCc1ccc(C(=O)Nc2cccc(S(=O)(=O)Nc3cccc(C4CCC(=O)NC4=O)c3)c2)cc1 (stereo not shown)")
"11.6 % of control"
>>> result("O=C1CCC(c2cccc(NS(=O)(=O)c3cccc(NC(=O)c4ccc(CCCCCl)cc4)c3)c2)C(=O)N1 (stereo not shown)")
"4.1 % of control"

**Q:** Suppose we examine the compound O=C1CCC(c2cccc(NS(=O)(=O)c3cccc(NC(=O)c4ccc(CCCCCCl)cc4)c3)c2)C(=O)N1 (stereo not shown) ; what Cell viability (% of control) value has been reported?
**A:** 15.7 % of control
